Biological target: AGO2 L192P (Homo sapiens, UniProt Q9UKV8 1-859, L192P;S387D;S824A;S828D;S831D;S834A)
Sequence (Q9UKV8 whole entry L192P/S387D/S824A/S828D/S831D/S834A): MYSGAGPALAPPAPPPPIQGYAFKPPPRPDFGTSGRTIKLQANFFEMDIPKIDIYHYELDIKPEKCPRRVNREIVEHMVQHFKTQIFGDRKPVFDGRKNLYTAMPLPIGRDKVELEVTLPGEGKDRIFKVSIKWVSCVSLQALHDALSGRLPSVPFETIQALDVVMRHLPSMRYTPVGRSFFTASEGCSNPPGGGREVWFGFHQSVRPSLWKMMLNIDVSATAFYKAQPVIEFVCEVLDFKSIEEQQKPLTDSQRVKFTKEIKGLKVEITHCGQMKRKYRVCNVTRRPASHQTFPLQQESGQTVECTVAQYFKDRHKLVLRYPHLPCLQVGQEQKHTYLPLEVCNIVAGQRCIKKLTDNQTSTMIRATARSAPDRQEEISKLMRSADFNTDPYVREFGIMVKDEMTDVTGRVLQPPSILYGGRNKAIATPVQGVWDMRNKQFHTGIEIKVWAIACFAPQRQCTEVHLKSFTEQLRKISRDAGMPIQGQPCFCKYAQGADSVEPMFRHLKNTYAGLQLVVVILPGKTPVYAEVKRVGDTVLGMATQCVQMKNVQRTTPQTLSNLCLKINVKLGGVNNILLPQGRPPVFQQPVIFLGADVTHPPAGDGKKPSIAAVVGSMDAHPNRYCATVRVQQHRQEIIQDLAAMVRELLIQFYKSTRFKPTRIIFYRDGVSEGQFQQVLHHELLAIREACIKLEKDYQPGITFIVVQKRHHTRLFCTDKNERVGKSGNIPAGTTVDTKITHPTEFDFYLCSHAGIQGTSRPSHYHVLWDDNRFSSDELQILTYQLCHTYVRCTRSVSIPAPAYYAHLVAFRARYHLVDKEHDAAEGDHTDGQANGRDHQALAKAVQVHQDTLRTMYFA
Test: RNA Bind-n-Seq (nitrocellulose filter binding and sequencing); miR-122 guide loaded in AGO2; 60 min incubation; 30 mM Tris pH 8.0, 100 mM potassium acetate, 2 mM magnesium acetate, 0.5 mM TCEP, 0.005% NP-40, 0.01 mg/ml yeast tRNA; 3 nM AGO2-miR-122, 100 nM RNA library; 60; high values mean tight binding
Details: protein: recombinant; tags: His6 (N-terminal, pFastBac HTA)
reportedProperty: binding signal

Below: 5 binders and their reported binding signal.
# binder, binding signal
measured = [
    ("ACGTCTCG (ssRNA, constant regions annealed to DNA blockers; guide miR-122 5' phosphate) RNA 1: GAGUUCUACAGUCCGACGAUCCCAACACGUCUCGCACCUGGAAUUCUCGGGUGCCAA RNA 2: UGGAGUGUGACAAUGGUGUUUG DNA 1: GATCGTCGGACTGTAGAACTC DNA 2: TTGGCACCCGAGAATTCCA", "0.32 fold enrichment over input"),
    ("ACGCCCCA (ssRNA, constant regions annealed to DNA blockers; guide miR-122 5' phosphate) RNA 1: GAGUUCUACAGUCCGACGAUCCCAACACGCCCCACACCUGGAAUUCUCGGGUGCCAA RNA 2: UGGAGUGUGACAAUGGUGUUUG DNA 1: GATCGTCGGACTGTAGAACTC DNA 2: TTGGCACCCGAGAATTCCA", "0.538 fold enrichment over input"),
    ("ACACTTCA (ssRNA, constant regions annealed to DNA blockers; guide miR-122 5' phosphate) RNA 1: GAGUUCUACAGUCCGACGAUCCCAACACACUUCACACCUGGAAUUCUCGGGUGCCAA RNA 2: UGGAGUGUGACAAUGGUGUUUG DNA 1: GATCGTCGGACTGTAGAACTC DNA 2: TTGGCACCCGAGAATTCCA", "0.941 fold enrichment over input"),
    ("GTGCCTTG (ssRNA, constant regions annealed to DNA blockers; guide miR-122 5' phosphate) RNA 1: GAGUUCUACAGUCCGACGAUCCCAACGUGCCUUGCACCUGGAAUUCUCGGGUGCCAA RNA 2: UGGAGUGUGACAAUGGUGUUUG DNA 1: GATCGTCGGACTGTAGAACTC DNA 2: TTGGCACCCGAGAATTCCA", "0.422 fold enrichment over input"),
    ("GTGTTCTA (ssRNA, constant regions annealed to DNA blockers; guide miR-122 5' phosphate) RNA 1: GAGUUCUACAGUCCGACGAUCCCAACGUGUUCUACACCUGGAAUUCUCGGGUGCCAA RNA 2: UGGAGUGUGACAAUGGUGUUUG DNA 1: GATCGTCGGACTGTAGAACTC DNA 2: TTGGCACCCGAGAATTCCA", "0.435 fold enrichment over input"),
]

Please report the recorded binding signal for GCATCTCA (ssRNA, constant regions annealed to DNA blockers; guide miR-122 5' phosphate) RNA 1: GAGUUCUACAGUCCGACGAUCCCAACGCAUCUCACACCUGGAAUUCUCGGGUGCCAA RNA 2: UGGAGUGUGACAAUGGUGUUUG DNA 1: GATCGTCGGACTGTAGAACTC DNA 2: TTGGCACCCGAGAATTCCA .
0.567 fold enrichment over input

These measurements were taken from paper PMC12529666.
